// data source = the RNAGym collection of RNA variant scans (doi:10.1126/science.aae0568)

B1: tRNA (parent)
chain: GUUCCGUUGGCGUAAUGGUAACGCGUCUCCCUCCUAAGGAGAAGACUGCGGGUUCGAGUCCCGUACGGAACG

variants of: B1; experiment: yeast fitness relative to wild type (ratio to wild type); higher = fitter; tRNA-Arg(CCU), competitive growth, 37 C, YPD
Fewer inactive variants are shown than the library holds.
yeast fitness reference

Below: 4 variants and their reported yeast fitness.
G18A A40C U47G A65C | ≤ 0.5
C4G C11G U64A | ≤ 0.5
C27U C30U C34A C62A | ≤ 0.5
U2G C24A C31G A45U | ≤ 0.5

For the variant U7C C11G C24U G48A G63A , report yeast fitness.
≤ 0.5

For the variant G41C A42C C49U , report yeast fitness.
≤ 0.5

For the variant G23C A36U G52C , report yeast fitness.
≤ 0.5
